Assignment: determine reported log10(IC50) for the given molecules.
# measurement-target: KRas G12D (Homo sapiens (Human), UniProt P01116, G12D)
# Sequence (P01116 other isoform, or with tags, fused parts or gaps G12D): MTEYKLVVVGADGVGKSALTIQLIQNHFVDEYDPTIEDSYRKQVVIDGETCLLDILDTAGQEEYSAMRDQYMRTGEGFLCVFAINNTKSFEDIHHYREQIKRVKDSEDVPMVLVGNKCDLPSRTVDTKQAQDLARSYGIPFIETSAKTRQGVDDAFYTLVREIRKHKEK
# protocol: KRas G12D Binding Assay (TR-FRET displacement of Cy5 labelled tracer)
# assay-setup: GDP-loaded KRAS G12D (amino acids 1:169), 60 minute incubation at 22° C.
Please be aware that the numbers have been log10-transformed from IC50 in nM.

query: Data request, read-out log10(IC50), for CCc1c(Cl)cccc1-c1ncc2c(N3C[C@H]4CC[C@@H](C3)N4)nc(OCC34CCCN3CCC4)nc2c1F [Example 312]
result: 0.95

query: Data request, read-out log10(IC50), for CC(Oc1nc(N2C[C@H]3CC[C@@H](C2)N3)c2cnc(-c3cccc4cccc(F)c34)c(F)c2n1)C12CCCN1CCC2 (stereo partly drawn) [Example 450]
result: 1.57

query: Data request, read-out log10(IC50), for COC1CN2CCCC2(COc2nc(N3CC4CCC(C3)N4)c3cnc(-c4cc(O)cc5cccc(F)c45)c(F)c3n2)C1 (mixture of isomers) [Example 388]
result: -0.22

query: Data request, read-out log10(IC50), for Cn1ccnc1CCOc1nc(N2C[C@H]3CC[C@@H](C2)N3)c2cnc(-c3cccc4ccccc34)c(F)c2n1 [Example 94]
result: 3.56

query: Data request, read-out log10(IC50), for COCCO[C@@H]1C[C@@H](COc2nc(N3C[C@H]4CC[C@@H](C3)N4)c3cnc(-c4cccc5cccc(Cl)c45)c(F)c3n2)N(C)C1 [Example 202]
result: 1.97

query: Data request, read-out log10(IC50), for Oc1cc(-c2ncc3c(N4C[C@H]5CC[C@@H](C4)N5)nc(OC[C@@]45CCCN4C[C@H](F)C5)nc3c2F)c2c(Cl)cccc2c1 [Example 251]
result: -0.70

###

# measurement-target: KRas G12D (Homo sapiens (Human), UniProt P01116, G12D)
# protocol: KRas G12D Binding Assay (TR-FRET displacement of Cy5 labelled tracer)
# assay-setup: GDP-loaded KRAS G12D (amino acids 1:169), 60 minute incubation at 22° C.
pIC50: −log10 of the molar value.
Give TRUE when the value for pIC50 is at least 7. Give FALSE when it is less.

query: // inclusive: pIC50 at least 7? input: CCC1(N)CN(c2nc(N3C[C@H]4CC[C@@H](C3)N4)c3cnc(-c4cccc5cccc(Cl)c45)c(F)c3n2)C1
result: FALSE

query: // inclusive: pIC50 at least 7? input: COC(c1ccc(O)cc1-c1ncc2c(N3CC4CCC(C3)N4)nc(OC[C@@]34CCCN3C[C@H](F)C4)nc2c1F)C(F)(F)F (stereo in doubt)
result: TRUE

query: // inclusive: pIC50 at least 7? input: Fc1c(-c2cccc(Cl)c2OC(F)(F)F)ncc2c(N3CC4CCC(C3)N4)nc(OCC34CCCN3CCC4)nc12
result: FALSE

query: // inclusive: pIC50 at least 7? input: N#CC[C@@H]1C[C@@H]2CN(c3nc(OC[C@@]45CCCN4C[C@H](F)C5)nc4c(F)c(-c5cc(O)cc6ccccc56)ncc34)C[C@H]1N2 (racemic)
result: TRUE

query: // inclusive: pIC50 at least 7? input: Oc1cccc(OC(F)(F)F)c1-c1ncc2c(N3CC4CCC(C3)N4)nc(OC[C@@]34CCCN3C[C@H](F)C4)nc2c1F
result: FALSE

query: // inclusive: pIC50 at least 7? input: CO[C@@H]1C[C@@H](COc2nc(N3C[C@H]4CC[C@@H](C3)N4)c3cnc(-c4cc(O)cc5ccccc45)c(F)c3n2)N(C)C1
result: TRUE
